FYI, the data here is from the supplement of paper PMC10567573.

experiment: protein stability index of a GFP-peptide fusion (GPS, HEK-293T) (PSI 1-6); higher = more stable; conditions: treatment: MLN4924 1 uM, 8 h; c terminus: a fixed tail appended;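 also: 24-mer peptide tiles fused after GFP, lentivirally expressed, FACS-sorted into six equal bins by GFP/DsRed ratio, decoded by Illumina sequencing, PSI is the read-weighted mean bin number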
// reported protein stability index for each item listed
OBSERVATION TYPE: protein stability index

[[record]]
residue_codes = "ESGVHGALLALDENFDHNTLALIL [PPFIA4]"
reported_result = 2.96

[[record]]
residue_codes = "CGYEGCRYGCGHRGCGDGCCCPSC [KRTAP19-2]"
reported_result = 3.72

[[record]]
residue_codes = "GEDIPEKIKDEVHPEVKCVGSVAL [C8orf76]"
reported_result = 4.81

[[record]]
residue_codes = "LLPDGRHAVVEVEDVPLAAKLVDL [TAF7L]"
reported_result = 4.22

[[record]]
residue_codes = "AGGQDMADSMLMQGSRGLTDQAIF [HDAC6]"
reported_result = 3.86

[[record]]
residue_codes = "RHSISMPAMRNSPTFKSFEERVET [TPD52L1]"
reported_result = 4.75

[[record]]
residue_codes = "KFFFKSMDDDFGVVKEEISDDNAK [DVL3]"
reported_result = 4.81

[[record]]
residue_codes = "LNQGSVFQEYDTDCEVFRQRFRQF [ZNF449]"
reported_result = 3.19

[[record]]
residue_codes = "EDELSLVKGSRVTVMEKCSDGWWR [NCK2]"
reported_result = 3.69

[[record]]
residue_codes = "YEELRNSERAEVQRLEEQERRHRE [RSPH3]"
reported_result = 5.38

[[record]]
residue_codes = "HIWELSSIKNSLKVAAISESPVAE [PTGFR]"
reported_result = 3.21

